Taken from patent US20240301062A1.

target: T1, human native CD3 on live cells (HuT78, Jurkat) (human, UniProt P07766 23-207; P09693 23-182; P04234 22-171); experiment: flow cytometry on live HuT78 cells, mouse anti-human IgG secondary, MFI
T1 construct: whole, on cells; also called human CD3
T1 sequence (P07766 23-207, chain 1 of 3): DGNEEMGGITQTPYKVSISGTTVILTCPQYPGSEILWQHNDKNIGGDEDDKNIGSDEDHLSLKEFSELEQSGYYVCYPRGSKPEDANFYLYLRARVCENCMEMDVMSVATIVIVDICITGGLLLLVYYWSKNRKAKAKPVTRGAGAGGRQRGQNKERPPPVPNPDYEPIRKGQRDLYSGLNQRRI
T1 sequence (P09693 23-182, chain 2 of 3): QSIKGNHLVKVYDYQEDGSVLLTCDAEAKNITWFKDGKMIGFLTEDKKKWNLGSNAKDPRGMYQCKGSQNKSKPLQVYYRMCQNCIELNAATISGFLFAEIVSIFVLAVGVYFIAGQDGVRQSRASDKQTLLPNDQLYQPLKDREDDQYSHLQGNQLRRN
T1 sequence (P04234 22-171, chain 3 of 3): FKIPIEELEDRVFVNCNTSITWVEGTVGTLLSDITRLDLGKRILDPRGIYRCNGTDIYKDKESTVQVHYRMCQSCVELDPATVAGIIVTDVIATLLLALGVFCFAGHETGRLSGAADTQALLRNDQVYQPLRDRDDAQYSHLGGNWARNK
property name: EC50 (read off the curve)

1) humanized scFv BG562P (scFv-Fc) (Fc fusion, BG561P with L4V in VL; not shown: human IgG1 Fc region, scFv fused to its N-terminus) scFv: EVQLVESGGGLVQPGGSLRLSCAASGFTFNTYAMNWVRQAPGKGLEWVARIRSKYNNYATYYADSVKDRFTISRDDAKNSLYLQMNSLRAEDTAVYYCVRHGNFGNSYVSWFAYWGQGTLVTVSSGGGGSGGGGSGGGGSEIVVTQSPATLSVSPGERATLSCRSSTGAVTTSNYANWVQQKPGQAPRGLIGGTNKRAPGIPARFSGSLSGDEATLTISSLQSEDFAVYYCALWYSNLWVFGGGTKVEIK :: ~0.3 µg/mL
2) humanized sp34 scFv BG561P (scFv-Fc) (Fc fusion, scFv (VH-3xG4S-VK) fused to N-terminus of a human IgG1 Fc region; also called scFv-ized BG56P; not shown: human IgG1 Fc region, scFv fused to its N-terminus) scFv: EVQLVESGGGLVQPGGSLRLSCAASGFTFNTYAMNWVRQAPGKGLEWVARIRSKYNNYATYYADSVKDRFTISRDDAKNSLYLQMNSLRAEDTAVYYCVRHGNFGNSYVSWFAYWGQGTLVTVSSGGGGSGGGGSGGGGSEIVLTQSPATLSVSPGERATLSCRSSTGAVTTSNYANWVQQKPGQAPRGLIGGTNKRAPGIPARFSGSLSGDEATLTISSLQSEDFAVYYCALWYSNLWVFGGGTKVEIK :: ~0.5 µg/mL
3) humanized sp34 BG56P (antibody, V domains shown) VH: EVQLVESGGGLVQPGGSLRLSCAASGFTFNTYAMNWVRQAPGKGLEWVARIRSKYNNYATYYADSVKDRFTISRDDAKNSLYLQMNSLRAEDTAVYYCVRHGNFGNSYVSWFAYWGQGTLVTVSS VL: EIVLTQSPATLSVSPGERATLSCRSSTGAVTTSNYANWVQQKPGQAPRGLIGGTNKRAPGIPARFSGSLSGDEATLTISSLQSEDFAVYYCALWYSNLWVFGGGTKVEIK :: ~0.7 µg/mL
